molecular target: Substance-P receptor (Homo sapiens, UniProt P25103)
Sequence (P25103 whole entry): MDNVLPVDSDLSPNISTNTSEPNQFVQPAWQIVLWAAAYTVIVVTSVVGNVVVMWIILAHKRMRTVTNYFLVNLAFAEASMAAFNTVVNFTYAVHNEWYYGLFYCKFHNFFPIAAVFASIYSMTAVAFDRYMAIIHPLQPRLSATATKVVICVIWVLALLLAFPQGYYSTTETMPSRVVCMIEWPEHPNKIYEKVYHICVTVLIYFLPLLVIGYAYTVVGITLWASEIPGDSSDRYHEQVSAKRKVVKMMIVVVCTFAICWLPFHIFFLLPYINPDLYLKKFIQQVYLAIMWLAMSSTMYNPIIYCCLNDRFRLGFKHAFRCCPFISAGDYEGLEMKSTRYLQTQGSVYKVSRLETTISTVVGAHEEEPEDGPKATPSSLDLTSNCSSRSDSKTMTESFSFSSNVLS
pKi: −log10 of the molar value. Starred links: 1 amine or outer side, 2 acyl side, 3 side chain; linkers in the order of their positions; H or OH if unused. Positions of bridges follow the written chain, without caps; N, C: chain ends. Non-standard residues stand in square brackets, D forms with d. Residues, ends and D or L forms follow the SMILES beside them. *: point of attachment. X2 = CN(C(=Cc1ccc(O)cc1)C(=O)[*:2])[*:1]; X1 = CCCCCc1ccccc1CCC(=O)*
Would you mind labelling by pKi? At or over 8 is Y, under is N.

molecule	category
COc1cc(C(=O)N2CC[C@@](CCN3CCC(C(N)=O)(c4ccccc4)CC3)(c3ccc(Cl)c(Cl)c3)C2)cc(OC)c1OC	Y
COc1cc(C(=O)N2CC[C@@](CCN3CCC(C(N)=O)(c4ccccc4)CC3)(c3ccc(Cl)c(Cl)c3)C2)cc(OC)c1OC [MDL 105,212A (R)-enantiomer]	Y
CC(=O)NC1(c2ccccc2)CCN(CCC(CN(C)C(=O)c2ccccc2)c2ccc(Cl)c(Cl)c2)CC1 (configuration not stated)	N
CCCCCc1ccccc1CCC(=O)NC1C(=O)N(C)C(=Cc2ccc(O)cc2)C(=O)NC(CC(C)C)C(=O)NC(Cc2ccccc2)C(=O)NC(C(C)O)C(=O)NC(CC(N)=O)C(=O)NC(CO)C(=O)OC1C (configuration not stated) [CAS_6437864] (X1-T[X2]LFTNS; ester 1-C; configuration not given here)	N
CN(Cc1ccccc1)C(=O)[C@@H](Cc1ccc2ccccc2c1)NC(=O)C1C[C@@H](O)CN1C(=O)c1cn(C)c2ccccc12 (some centres not stated)	Y

---

Starred links: 1 amine or outer side, 2 acyl side, 3 side chain; linkers in the order of their positions; H or OH if unused. Positions of bridges follow the written chain, without caps; N, C: chain ends. Non-standard residues stand in square brackets, D forms with d. Residues, ends and D or L forms follow the SMILES beside them. *: point of attachment. X2 = CN(C(=Cc1ccc(O)cc1)C(=O)[*:2])[*:1]; X1 = CCCCCc1ccccc1CCC(=O)*
As a worked illustration, we turn to Ki data collected for Substance-K receptor (Bos taurus).
parameter.measured: Ki (nM)

compound	recorded.number
CCCCCc1ccccc1CCC(=O)NC1C(=O)N(C)C(=Cc2ccc(O)cc2)C(=O)NC(CC(C)C)C(=O)NC(Cc2ccccc2)C(=O)NC(C(C)O)C(=O)NC(CC(N)=O)C(=O)NC(CO)C(=O)OC1C (configuration not stated) [CAS_6437864] (X1-T[X2]LFTNS; ester 1-C; configuration not given here)	311
COc1cc(C(=O)N2CC[C@@](CCN3CCC(C(N)=O)(c4ccccc4)CC3)(c3ccc(Cl)c(Cl)c3)C2)cc(OC)c1OC [MDL 105,212A (R)-enantiomer]	8.4

---

Biological target: Substance-K receptor (Bos taurus, UniProt P05363)
Sequence (P05363 whole entry): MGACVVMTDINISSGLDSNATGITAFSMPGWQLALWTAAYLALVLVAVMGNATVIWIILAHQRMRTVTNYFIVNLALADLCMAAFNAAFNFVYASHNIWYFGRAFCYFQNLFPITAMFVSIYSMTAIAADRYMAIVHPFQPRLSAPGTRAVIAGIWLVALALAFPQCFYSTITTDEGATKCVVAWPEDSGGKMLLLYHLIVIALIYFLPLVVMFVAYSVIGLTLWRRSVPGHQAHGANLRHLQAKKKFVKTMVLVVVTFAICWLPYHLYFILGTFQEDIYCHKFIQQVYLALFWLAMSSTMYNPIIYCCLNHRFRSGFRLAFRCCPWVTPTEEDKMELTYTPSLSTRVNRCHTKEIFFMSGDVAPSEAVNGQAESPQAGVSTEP
parameter.measured: Ki (nM)

compound	unit.abbreviation	recorded.number
CC(=O)NC1(c2ccccc2)CCN(CCC(CN(C)C(=O)c2ccccc2)c2ccc(Cl)c(Cl)c2)CC1 (stereo not drawn)	nM	0.71
COc1cc(C(=O)N2CC[C@@](CCN3CCC(C(N)=O)(c4ccccc4)CC3)(c3ccc(Cl)c(Cl)c3)C2)cc(OC)c1OC	nM	8.49
COc1cc(C(=O)N2CC[C@](CCN3CCC(C(N)=O)(c4ccccc4)CC3)(c3ccc(Cl)c(Cl)c3)C2)cc(OC)c1OC	nM	207
